tested on: IL-4 stimulated CD23 upregulation in human Ramos B cells (JAK-1/JAK-3, Stat-6); test: Assay for Ramos B-Cell Line Stimulated with IL-4 (CD23 upregulation, FACS); type: cell-based; details: Table III Example 3
pIC50: −log10 of the molar value.
Quick rule: pIC50 of at least 7 means Satisfied, below that means Not satisfied.

[[record]]
compound = "CCS(=O)(=O)NCc1ccc(Nc2nc(Nc3cccc(S(N)(=O)=O)c3)ncc2F)cc1Cl"
cat = "Not satisfied"

[[record]]
compound = "Cc1cnc(Nc2cccc(S(N)(=O)=O)c2)nc1Nc1ccc(CNS(=O)(=O)C2CC2)cc1"
cat = "Satisfied"

[[record]]
compound = "CCC(=O)NS(=O)(=O)c1ccc(Nc2ncc(C)c(Nc3ccc(CN(C(=O)CC)S(=O)(=O)CC)cc3)n2)cc1"
cat = "Not satisfied"

[[record]]
compound = "Cc1cnc(Nc2cccc(S(=O)(=O)NC3CCN(C)CC3)c2)nc1Nc1cccc(CNS(=O)(=O)C2CC2)c1"
cat = "Not satisfied"

[[record]]
compound = "CCCCC(=O)NS(=O)(=O)c1cccc(Nc2ncc(C)c(Nc3cccc(CN(C(=O)CCCC)S(=O)(=O)C4CC4)c3)n2)c1"
cat = "Not satisfied"

[[record]]
compound = "CCS(=O)(=O)NCc1cccc(Nc2nc(Nc3ccc(S(N)(=O)=O)cc3)ncc2F)c1"
cat = "Not satisfied"

[[record]]
compound = "COCCNS(=O)(=O)c1cccc(Nc2ncc(C)c(Nc3ccc(CNS(=O)(=O)C4CC4)cc3)n2)c1"
cat = "Satisfied"

[[record]]
compound = "Cc1cnc(Nc2cccc(S(=O)(=O)NC(=O)[C@@H](N)Cc3ccccc3)c2)nc1Nc1cccc(CNS(=O)(=O)C2CC2)c1 [Compound I-132]"
cat = "Not satisfied"

[[record]]
compound = "Cc1cnc(Nc2cccc(S(=O)(=O)NC(=O)[C@@H](N)Cc3ccccc3)c2)nc1Nc1cccc(CNS(=O)(=O)C2CC2)c1 [Compound I-134]"
cat = "Not satisfied"

[[record]]
compound = "CC(=O)Nc1nc(C)c(S(=O)(=O)NCc2ccc(Nc3nc(Nc4cccc(S(N)(=O)=O)c4)ncc3F)cc2)s1"
cat = "Not satisfied"


Query: For this compound, is measured pIC50 7 or higher? CCCNS(=O)(=O)c1ccc(Nc2ncc(C)c(Nc3ccc(CNS(=O)(=O)C4CC4)cc3)n2)cc1
Result: Satisfied

Query: For this compound, is measured pIC50 7 or higher? CCC(=O)N(Cc1cccc(Nc2nc(Nc3cccc(S(N)(=O)=O)c3)ncc2C)c1)S(=O)(=O)C1CC1
Result: Satisfied

Query: For this compound, is measured pIC50 7 or higher? CC(=O)Nc1nc(C)c(S(=O)(=O)NCc2ccc(Nc3nc(Nc4ccc(C)c(S(N)(=O)=O)c4)ncc3F)cc2)s1
Result: Not satisfied

Query: For this compound, is measured pIC50 7 or higher? Cc1cnc(Nc2ccc(S(N)(=O)=O)cc2)nc1Nc1ccc(CNS(=O)(=O)C2CC2)cc1
Result: Satisfied

Query: For this compound, is measured pIC50 7 or higher? CCOC(=O)N(CC)S(=O)(=O)c1cccc(Nc2ncc(C)c(Nc3cccc(CNS(=O)(=O)C4CC4)c3)n2)c1
Result: Not satisfied
